Hello, the source for this data is patent US9850283B2, in case you need it.

- SYSTEM: LK35.2-hPD-L1 cells / PE-labeled PD-1-Ig (Homo sapiens, UniProt Q9NZQ7)
- Construct: expressed in transfected cells; host or cells: LK35.2 mouse B cell line
- Sequence (Q9NZQ7 19-290): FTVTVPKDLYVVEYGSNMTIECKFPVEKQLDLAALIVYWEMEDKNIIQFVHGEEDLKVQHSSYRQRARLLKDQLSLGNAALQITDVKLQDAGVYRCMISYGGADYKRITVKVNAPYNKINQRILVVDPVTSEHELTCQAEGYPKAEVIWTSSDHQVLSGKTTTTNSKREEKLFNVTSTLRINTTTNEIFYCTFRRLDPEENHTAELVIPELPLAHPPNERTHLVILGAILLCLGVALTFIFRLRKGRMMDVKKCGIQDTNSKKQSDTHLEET
- TEST_METHOD_NOTES: LK35.2-hPD-L1 cell binding high-content screening assay
- Format: cell-based
- MEASUREMENT_CONTEXT: cluster symbol; cell line of CBA not given (LK35.2-hPD-L1 or 293T-hPD-L1); read-out: CBA IC50 cluster
pIC50: −log10 of the molar value. Positions of bridges follow the written chain, without caps; N, C: chain ends. Non-standard residues stand in square brackets, D forms with d. Residues, ends and D or L forms follow the SMILES beside them. Phe(3,5-Cl2) = N[C@@H](Cc1cc(Cl)cc(Cl)c1)C(=O)O; Trp(5-OH) = N[C@@H](Cc1c[nH]c2ccc(O)cc12)C(=O)O; Bta = N[C@@H](Cc1csc2ccccc12)C(=O)O; Hyp = O=C(O)[C@@H]1C[C@@H](O)CN1; NMeF = CN[C@@H](Cc1ccccc1)C(=O)O; NMeNle = CCCC[C@H](NC)C(=O)O; NMeA = CN[C@@H](C)C(=O)O; Orn = NCCC[C@H](N)C(=O)O; Dap = NC[C@H](N)C(=O)O; Sar = CNCC(=O)O
Item-by-item account of pIC50

As a guide, the following entries are already answered.
COMPOUND	pIC50
CCCC[C@H]1C(=O)N(C)[C@@H](CCCC)C(=O)N[C@@H](CCCNC(=N)N)C(=O)N[C@H](C(=O)NCC(N)=O)CSCC(=O)N[C@@H](Cc2ccc(O)cc2)C(=O)N(C)[C@@H](C)C(=O)N[C@@H](CC(N)=O)C(=O)N[C@@H](Cc2cnc[nH]2)C(=O)N2CCC[C@H]2C(=O)N[C@@H](CC(C)C)C(=O)N2CCC[C@H]2C(=O)N[C@@H](Cc2c[nH]c3ccccc23)C(=O)N[C@@H](CO)C(=O)N[C@@H](Cc2csc3ccccc23)C(=O)N1C [Example 1052] ({CH2CO}-Y[NMeA]NHPLPWS[Bta][NMeNle][NMeNle]RCG-NH2; thioether N-14)	< 7.13
CCCC[C@H]1C(=O)N(C)CC(=O)N[C@@H](CC(=O)O)C(=O)N[C@@H](C(C)C)C(=O)N(C)[C@@H](Cc2ccccc2)C(=O)N[C@@H](Cc2c[nH]c3ccc(O)cc23)C(=O)N(C)CC(=O)N[C@@H](Cc2c[nH]c3ccccc23)C(=O)N[C@@H](Cc2ccc(O)cc2)C(=O)N[C@@H](CC(C)C)C(=O)N[C@H](C(=O)NCC(N)=O)CSCC(=O)N[C@@H](Cc2ccccc2)C(=O)N(C)[C@@H](Cc2ccccc2)C(=O)N1C [Example 3148] ({CH2CO}-F[NMeF][NMeNle][Sar]DV[NMeF][Trp(5-OH)][Sar]WYLCG-NH2; thioether N-13)	7.14 to 8.32
CCCC[C@H]1C(=O)N(C)[C@@H](CCCC)C(=O)N[C@@H](CCCNC(=N)N)C(=O)N[C@H](C(=O)NCC(N)=O)CSCC(=O)N[C@@H](Cc2ccccc2)C(=O)N(C)[C@@H](C)C(=O)N[C@@H](CC(N)=O)C(=O)N2CCC[C@H]2C(=O)N[C@@H](CCCN)C(=O)N[C@@H](CC(C)C)C(=O)N(C)CC(=O)N[C@@H](Cc2c[nH]c3ccccc23)C(=O)N[C@@H](CO)C(=O)N[C@@H](Cc2c[nH]c3ccccc23)C(=O)N1C [Example 1059] ({CH2CO}-F[NMeA]NP[Orn]L[Sar]WSW[NMeNle][NMeNle]RCG-NH2; thioether N-14)	< 7.13
CCCC[C@H]1C(=O)N(C)[C@@H](CCCC)C(=O)N[C@@H](C)C(=O)N[C@H](C(=O)NCC(=O)O)CSCC(=O)N[C@@H](Cc2ccc(O)cc2)C(=O)N(C)[C@@H](C)C(=O)N[C@@H](CC(N)=O)C(=O)N2CCC[C@H]2C(=O)N[C@@H](Cc2cnc[nH]2)C(=O)N[C@@H](CC(C)C)C(=O)N[C@@H](CCN)C(=O)N[C@@H](Cc2c[nH]c3ccccc23)C(=O)N[C@@H](CO)C(=O)N[C@@H](Cc2c[nH]c3ccccc23)C(=O)N1C [Example 1229]	7.14 to 8.32
CCCC[C@H]1C(=O)N(C)[C@@H](CCCC)C(=O)N[C@@H](C)C(=O)N[C@H](C(=O)NCC(N)=O)CSCC(=O)N[C@@H](Cc2ccc(O)cc2)C(=O)N(C)[C@@H](C)C(=O)N[C@@H](CCCN)C(=O)N2CCC[C@H]2C(=O)N[C@@H](Cc2cnc[nH]2)C(=O)N[C@@H](CCC(=O)O)C(=O)N2C[C@H](O)C[C@H]2C(=O)N[C@@H](Cc2c[nH]c3ccccc23)C(=O)N[C@@H](CO)C(=O)N[C@@H](Cc2c[nH]c3ccccc23)C(=O)N1C [Example 1179] ({CH2CO}-Y[NMeA][Orn]PHE[Hyp]WSW[NMeNle][NMeNle]ACG-NH2; thioether N-14)	7.14 to 8.32

Q: Jot down pIC50 (LK35.2-hPD-L1 cells / PE-labeled PD-1-Ig (Homo sapiens, UniProt Q9NZQ7)) of CCCC[C@H]1C(=O)N(C)CC(=O)N[C@@H](CC(=O)O)C(=O)N[C@@H](C(C)C)C(=O)N(C)[C@@H](Cc2ccccc2)C(=O)N[C@@H](Cc2ccc(O)cc2)C(=O)N(C)CC(=O)N[C@@H](Cc2c[nH]c3ccccc23)C(=O)N[C@@H](Cc2ccc(O)cc2)C(=O)N[C@@H](CC(C)C)C(=O)N[C@H](C(=O)NCC(N)=O)CSCC(=O)N[C@@H](Cc2cc(Cl)cc(Cl)c2)C(=O)N(C)[C@@H](Cc2ccccc2)C(=O)N1C [Example 3179] ({CH2CO}-[Phe(3,5-Cl2)][NMeF][NMeNle][Sar]DV[NMeF]Y[Sar]WYLCG-NH2; thioether N-13) .
Result: 7.14 to 8.32

Q: Jot down pIC50 (LK35.2-hPD-L1 cells / PE-labeled PD-1-Ig (Homo sapiens, UniProt Q9NZQ7)) of CCCC[C@H]1C(=O)N(C)[C@@H](CCCC)C(=O)N[C@@H](CCCNC(=N)N)C(=O)N[C@H](C(=O)NCC(N)=O)CSCC(=O)N[C@@H](Cc2ccccc2)C(=O)N(C)[C@@H](C)C(=O)N[C@@H](CC(N)=O)C(=O)N2CCC[C@H]2C(=O)N[C@@H](Cc2cnc[nH]2)C(=O)N[C@@H](CC(C)C)C(=O)N(C)CC(=O)N[C@@H](Cc2c[nH]c3ccccc23)C(=O)N[C@@H](CCCCN)C(=O)N[C@@H](Cc2c[nH]c3ccccc23)C(=O)N1C [Example 1069] ({CH2CO}-F[NMeA]NPHL[Sar]WKW[NMeNle][NMeNle]RCG-NH2; thioether N-14) .
Result: 7.14 to 8.32

Q: Jot down pIC50 (LK35.2-hPD-L1 cells / PE-labeled PD-1-Ig (Homo sapiens, UniProt Q9NZQ7)) of CCCC[C@H]1C(=O)N(C)[C@@H](CCCC)C(=O)N[C@@H](CCCNC(=N)N)C(=O)N[C@H](C(=O)NCC(N)=O)CSCC(=O)N[C@@H](Cc2ccc(O)cc2)C(=O)N(C)[C@@H](C)C(=O)N[C@@H](CC(N)=O)C(=O)N2CCC[C@H]2C(=O)N[C@@H](CN)C(=O)N[C@@H](CCC(=O)O)C(=O)N2CCC[C@H]2C(=O)N[C@@H](Cc2c[nH]c3ccccc23)C(=O)N[C@@H](CO)C(=O)N[C@@H](Cc2csc3ccccc23)C(=O)N1C [Example 1127] ({CH2CO}-Y[NMeA]NP[Dap]EPWS[Bta][NMeNle][NMeNle]RCG-NH2; thioether N-14) .
Result: 8.33 to 9.80
